Item-by-item account of Kd
Molecular target: P-selectin (PS-Rg) (Homo sapiens, UniProt P16109 P16109:42-321)
Sequence (P16109 42-321, one chain of several): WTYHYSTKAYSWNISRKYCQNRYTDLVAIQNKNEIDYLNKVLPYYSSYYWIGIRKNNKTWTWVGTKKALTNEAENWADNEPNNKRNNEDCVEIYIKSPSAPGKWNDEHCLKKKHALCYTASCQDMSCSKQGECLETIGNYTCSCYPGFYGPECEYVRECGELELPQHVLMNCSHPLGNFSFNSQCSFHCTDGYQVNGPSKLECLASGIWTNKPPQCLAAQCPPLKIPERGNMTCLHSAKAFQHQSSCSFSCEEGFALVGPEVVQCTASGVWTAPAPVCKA
Experiment: filter; HSMC, 37 C
Conditions: tags: human IgG Fc fusion; chain copies: 2 (stated dimer)
Number in nM, nothing else.

# Binder, Experimental result
measured = [
    ("PF388 (ssRNA, 2'-F C and U) RNA: GGGAGACAAGAAUAAACGCUCAACUGGCAACGGGAUAACAACAAAUGUCACCAGCACUAGCGAGACGGAAGGUUCGACAGGAGGCUCACAACAGGC", 0.09),
    ("PF386 (ssRNA, 2'-F C and U) RNA: GGGAGACAAGAAUAAACGCUCAAACAAGAGAGUCAAACCAAGUGAGAUCAGAGCGUUUAGCGCGGAAAGCACAUUCGACAGGAGGCUCACAACAGGC", 0.0455),
    ("PF416 (ssRNA, 2'-F C and U) RNA: GGGAGACAAGAAUAAACGCUCAACAGUUCACUCAACCGGCACCAGACUACGAUCAGCAUUGGCGAGUGAACACUUCGACAGGAGGCUCACAACAGGC", 0.063),
]

Proceeding to the next binder to report its Kd.
-- ask Need Kd of PF398 (ssRNA, 2'-F C and U) RNA: GGGAGACAAGAAUAAACGCUCAACGAACCACGGGGAAAUCCACCAGUAACACGCGAGGCAAACAGACCCUCUUCGACAGGAGGCUCACAACAGGC , thanks.
-- reply 0.046

The reported measurements were obtained from patent US20030059769.
